# Dmax at 6 µM annotations
- TESTED ON: MycN (Homo sapiens)
- Construct: endogenous in cells; host or cells: SK-N-BE(2)
- Sequence (P04198 whole entry): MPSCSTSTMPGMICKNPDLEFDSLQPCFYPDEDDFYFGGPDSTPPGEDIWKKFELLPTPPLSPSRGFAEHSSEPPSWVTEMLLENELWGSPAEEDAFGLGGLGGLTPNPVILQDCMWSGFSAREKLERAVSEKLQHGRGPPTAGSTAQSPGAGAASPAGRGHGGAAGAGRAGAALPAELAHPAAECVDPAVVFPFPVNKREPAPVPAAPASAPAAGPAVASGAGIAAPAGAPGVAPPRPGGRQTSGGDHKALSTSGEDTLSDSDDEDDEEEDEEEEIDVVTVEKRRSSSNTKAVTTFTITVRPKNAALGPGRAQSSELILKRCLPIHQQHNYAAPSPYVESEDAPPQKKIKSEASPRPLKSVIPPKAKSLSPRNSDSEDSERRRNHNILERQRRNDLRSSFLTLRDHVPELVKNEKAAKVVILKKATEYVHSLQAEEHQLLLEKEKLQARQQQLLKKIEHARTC
- ASSAY INFO: Degradation of MycN protein in SK-N-BE(2) cells, JESS/Western blot of lysates
- Assay type: cell-based
- APPLIED CONDITIONS: SKNBE2, 24 h, SKNBE2 cells, 24 h, 6 μM; read-out: % Degradation of MycN (SKNBE2) 24 h, 6 μM
OBSERVABLE: Dmax at 6 µM

# MOLECULE, OBSERVABLE, RESULT
rows = [
    ("CNCC12CC(C1)N(c1nccc(Nc3cc(C4CC4)[nH]n3)n1)C2", "Dmax at 6 µM", "80 to 100%"),
    ("CN1CC(C2CCN(c3nccc(Nc4cc(C5CC5)[nH]n4)n3)C2)C1 (stereo not shown)", "Dmax at 6 µM", "50 to 79%"),
    ("CN1CC(C2CCN(c3nccc(Nc4cc(C5CCCC5)[nH]n4)n3)C2)C1 (stereo not shown)", "Dmax at 6 µM", "80 to 100%"),
    ("NCC1CN(c2nccc(Nc3cc(C4CC4)[nH]n3)n2)CC1(F)F (stereo not shown)", "Dmax at 6 µM", "80 to 100%"),
]
